# log10 IC90 per record follows
tested on: Human immunodeficiency virus 1; assay: In vitro antiviral activity against HIV-1 (BAL) in HeLa cells.; type: functional; conditions: Human immunodeficiency virus 1, HeLa
recorded_metric: log10 IC90 (log10 of the value in nM)

compound: O=C(O)[C@@H](CC1CC1)N1C[C@H](CN2CCC(CCC3(c4ccc(F)cc4)OCCO3)CC2)[C@@H](c2cccc(F)c2)C1
endpoint_result: 2.00

compound: O=C(O)[C@@H](CC1CC1)N1C[C@H](CN2CCC(CCC(CO)c3ccc(F)cc3)CC2)[C@@H](c2cccc(F)c2)C1 (some centres undefined)
endpoint_result: 1.52

compound: O=C(O)[C@@H](CC1CCC1)N1C[C@H](CN2CCC(CCCc3ccc(C(F)(F)F)cc3)CC2)[C@@H](c2cccc(F)c2)C1
endpoint_result: 1.04

compound: O=C(O)[C@@H](CC1CC1)N1CC(CN2CCC(CCC(F)(F)c3ccc(F)cc3)CC2)[C@@H](c2cccc(F)c2)C1 (single isomer, unassigned)
endpoint_result: -0.40

compound: CC(C)[C@H](C(=O)O)N1C[C@H](CN2CCC(CCSc3ccc(F)cc3)CC2)[C@@H](c2cccc(F)c2)C1
endpoint_result: 2.00

compound: O=C(O)[C@@H](CC1CCC1)N1C[C@H](CN2CCC(CCS(=O)(=O)c3ccc(F)cc3)CC2)[C@@H](c2cccc(F)c2)C1
endpoint_result: -0.40

compound: O=C(O)[C@@H](CC1CC1)N1C[C@H](CN2CCC(CCC(O)c3ccc(F)cc3)CC2)[C@@H](c2cccc(F)c2)C1 (some centres undefined)
endpoint_result: 0.08

compound: O=C(O)[C@@H](C1CCCCC1)N1C[C@H](CN2CCC(CCS(=O)(=O)c3ccc(F)cc3)CC2)[C@@H](c2cccc(F)c2)C1
endpoint_result: -0.40

compound: CC(C)[C@H](C(=O)O)N1C[C@H](CN2CCC(CCC(F)(F)c3ccc(F)cc3)CC2)[C@@H](c2cccc(F)c2)C1
endpoint_result: 1.52

compound: N#Cc1ccc(CCCC2CCN(C[C@H]3CN([C@H](CC4CCC4)C(=O)O)C[C@@H]3c3cccc(F)c3)CC2)cc1
endpoint_result: -0.40

compound: O=C(CCC1CCN(C[C@H]2CN([C@@H](C(=O)O)C3CCCCC3)C[C@@H]2c2ccccc2)CC1)c1ccc(F)cc1
endpoint_result: 2.00

compound: O=C(O)[C@@H](CC1CCC1)N1C[C@H](CN2CCC(CCSc3ccc(F)cc3)CC2)[C@@H](c2cccc(F)c2)C1
endpoint_result: 0.60

compound: COC(=O)C(CCC1CCN(C[C@H]2CN([C@H](CC3CC3)C(=O)O)C[C@@H]2c2cccc(F)c2)CC1)c1ccc(F)cc1 (some centres undefined)
endpoint_result: 1.52

compound: O=C(O)[C@@H](C1CCCCC1)N1C[C@H](CN2CCC(CCC(F)(F)c3ccc(F)cc3)CC2)[C@@H](c2ccccc2)C1
endpoint_result: 0.60

###

Recorded measurements of IC50, one per entry
biological target: C-C chemokine receptor type 5 (Homo sapiens, UniProt P51681); test: Ability to displace [125I]- labeled MIP-1alpha from CCR5 receptor expressed on CHO cell membrane
Sequence (P51681 whole entry): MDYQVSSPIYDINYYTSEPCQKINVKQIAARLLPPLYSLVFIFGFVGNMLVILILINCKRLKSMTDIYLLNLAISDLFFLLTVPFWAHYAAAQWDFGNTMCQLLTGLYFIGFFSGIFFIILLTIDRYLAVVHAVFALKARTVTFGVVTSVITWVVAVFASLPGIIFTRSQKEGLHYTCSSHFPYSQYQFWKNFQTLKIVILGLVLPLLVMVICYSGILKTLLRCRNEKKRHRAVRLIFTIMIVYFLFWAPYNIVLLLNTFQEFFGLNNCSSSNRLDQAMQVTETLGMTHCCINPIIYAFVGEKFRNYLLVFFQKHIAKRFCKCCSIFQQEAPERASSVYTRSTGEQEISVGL

compound: O=C(O)[C@@H](CC1CCC1)N1C[C@H](CN2CCC(CCCc3ccccc3)CC2)[C@@H](c2cccc(F)c2)C1
value_units: nM
IC50: 0.5
//
compound: CC(C)[C@H](C(=O)O)N1C[C@H](CN2CCC(CCC(F)(F)c3ccc(F)cc3)CC2)[C@@H](c2cccc(F)c2)C1
value_units: nM
IC50: 0.5
//
compound: O=C(O)[C@@H](CC1CCC1)N1C[C@H](CN2CCC(CC[S+]([O-])c3ccc(F)cc3)CC2)[C@@H](c2cccc(F)c2)C1 (stereo in doubt; 30)
value_units: nM
IC50: 0.5
